These measurements were taken from patent US9708383.

# EXPERIMENTAL TARGET: T1, human GLP-1 receptor (human, UniProt P43220 24-463)
# T1 construct: whole, on cells; Used as purified membranes of the transfected hamster cells, not whole cells; also called hGLP-1
# ASSAY COMMENT: SPA, 2.0% vs 0.005% HSA
*1 amine or outer side, *2 acyl side, *3 side chain or, on linkers, in order; H or OH if unused. Where no end group is shown, it is not given here. Side-chain parts run from the residue outwards. [ ]: non-standard residue; d: D form. The star is where a group is joined. γGlu = O=C(O)[C@H](CCC(=O)[*:2])N[*:1]; Desaminohistidyl = O=C(CCc1c[nH]cn1)*; 13‑carboxytridecanoyl = C14 diacid; AEEA = NCCOCCOCC(=O)O; Aib = CC(C)(N)C(=O)O
REPORTED ENDPOINT: ratio IC50 high HSA/IC50 low HSA

INSERT INTO measurements (binder, assay_value) VALUES
  ('H[Aib]EGTFTSDVSK([AEEA-AEEA-AEEA-AEEA-γGlu-13‑carboxytridecanoyl])YLEEQAVREFIAK([AEEA-AEEA-AEEA-AEEA-γGlu-13‑carboxytridecanoyl])LVRGRG [GLP-1 derivative of Example 130: [Aib8,Lys18,Glu22,Val25,Arg26,Lys31,Arg34]-GLP-1-(7-37)-peptide]', '> 1'),
  ('[Desaminohistidyl]AEGTFTSDVSK([AEEA-AEEA-13‑carboxytridecanoyl])YLEEQAARK([AEEA-AEEA-13‑carboxytridecanoyl])FIAHLVG [GLP-1 derivative of Example 31: [Imp7,Lys18,Glu22,Arg26,Lys27,His31,Gly34]-GLP-1-(7-34)-peptide]', '> 1');
